Data provenance is the supplement of paper PMC10567573.

B1: TRIM9 (parent)
chain: PRNSCITCPQCHRSLILDDRGLRG

Variants of: B1
Assay: protein stability index of a GFP-peptide fusion (GPS, HEK-293T) (PSI 1-6); higher = more stable;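 also: lentivirally expressed fusions sorted by FACS into six bins by GFP to DsRed ratio, PSI derived from sequencing read proportions per bin multiplied by bin number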
Conditions: c terminus: a fixed tail appended
measured parameter: protein stability index

[
  {
    "variant notation": "S4T",
    "measured parameter": "protein stability index",
    "value measured": 1.73
  },
  {
    "variant notation": "N3V",
    "measured parameter": "protein stability index",
    "value measured": 1.83
  },
  {
    "variant notation": "S14A",
    "measured parameter": "protein stability index",
    "value measured": 2.18
  },
  {
    "variant notation": "S14Y",
    "measured parameter": "protein stability index",
    "value measured": 2.66
  },
  {
    "variant notation": "R13V",
    "measured parameter": "protein stability index",
    "value measured": 2.2
  },
  {
    "variant notation": "L15Y",
    "measured parameter": "protein stability index",
    "value measured": 2.79
  },
  {
    "variant notation": "D19M",
    "measured parameter": "protein stability index",
    "value measured": 2.24
  },
  {
    "variant notation": "T7R",
    "measured parameter": "protein stability index",
    "value measured": 1.98
  },
  {
    "variant notation": "C8H",
    "measured parameter": "protein stability index",
    "value measured": 2.29
  },
  {
    "variant notation": "D19S",
    "measured parameter": "protein stability index",
    "value measured": 2.11
  },
  {
    "variant notation": "C11V",
    "measured parameter": "protein stability index",
    "value measured": 2.2
  },
  {
    "variant notation": "S4I",
    "measured parameter": "protein stability index",
    "value measured": 2.52
  },
  {
    "variant notation": "L17A",
    "measured parameter": "protein stability index",
    "value measured": 1.72
  },
  {
    "variant notation": "R2K",
    "measured parameter": "protein stability index",
    "value measured": 2.19
  },
  {
    "variant notation": "D18Q",
    "measured parameter": "protein stability index",
    "value measured": 1.96
  },
  {
    "variant notation": "P1S",
    "measured parameter": "protein stability index",
    "value measured": 2.61
  },
  {
    "variant notation": "I16V",
    "measured parameter": "protein stability index",
    "value measured": 2.28
  },
  {
    "variant notation": "C5H",
    "measured parameter": "protein stability index",
    "value measured": 1.77
  },
  {
    "variant notation": "N3Y",
    "measured parameter": "protein stability index",
    "value measured": 1.85
  },
  {
    "variant notation": "R23M",
    "measured parameter": "protein stability index",
    "value measured": 1.67
  },
  {
    "variant notation": "C11L",
    "measured parameter": "protein stability index",
    "value measured": 1.83
  },
  {
    "variant notation": "G24F",
    "measured parameter": "protein stability index",
    "value measured": 2.34
  }
]
